Property: self-cleavage; scope: individual variants
B1: Osa-1-4 twister ribozyme (parent)
chain: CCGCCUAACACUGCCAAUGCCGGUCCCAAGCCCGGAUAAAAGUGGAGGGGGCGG

# Variants of: B1
# PROCEDURE TEXT: self-cleavage, relative activity (ratio to wild type); higher = more cleavage; co-transcriptional

- MUTANT: "G54C U12C"
  self-cleavage: 0.57
- MUTANT: "G45A G51U"
  self-cleavage: 0.07
- MUTANT: "A40U A46G"
  self-cleavage: 0.05
- MUTANT: "G30U G47A"
  self-cleavage: 0.03
- MUTANT: "G30U G48C"
  self-cleavage: 0.02
- MUTANT: "G13A U24G"
  self-cleavage: 0.01
- MUTANT: "G44C U18G"
  self-cleavage: 0.64
- MUTANT: "G23C G53C"
  self-cleavage: 0.02
- MUTANT: "C25G C26A"
  self-cleavage: 0.01
- MUTANT: "C15A U24G"
  self-cleavage: 0.02
- MUTANT: "G50A G54C"
  self-cleavage: 0.99

Data origin: the RNAGym collection of RNA variant scans (doi:10.1002/anie.201605470)
